Molecular target: P2X7R (Homo sapiens)
Construct: expressed in transfected cells; host or cells: HEK-293
Sequence (Q99572 1-595): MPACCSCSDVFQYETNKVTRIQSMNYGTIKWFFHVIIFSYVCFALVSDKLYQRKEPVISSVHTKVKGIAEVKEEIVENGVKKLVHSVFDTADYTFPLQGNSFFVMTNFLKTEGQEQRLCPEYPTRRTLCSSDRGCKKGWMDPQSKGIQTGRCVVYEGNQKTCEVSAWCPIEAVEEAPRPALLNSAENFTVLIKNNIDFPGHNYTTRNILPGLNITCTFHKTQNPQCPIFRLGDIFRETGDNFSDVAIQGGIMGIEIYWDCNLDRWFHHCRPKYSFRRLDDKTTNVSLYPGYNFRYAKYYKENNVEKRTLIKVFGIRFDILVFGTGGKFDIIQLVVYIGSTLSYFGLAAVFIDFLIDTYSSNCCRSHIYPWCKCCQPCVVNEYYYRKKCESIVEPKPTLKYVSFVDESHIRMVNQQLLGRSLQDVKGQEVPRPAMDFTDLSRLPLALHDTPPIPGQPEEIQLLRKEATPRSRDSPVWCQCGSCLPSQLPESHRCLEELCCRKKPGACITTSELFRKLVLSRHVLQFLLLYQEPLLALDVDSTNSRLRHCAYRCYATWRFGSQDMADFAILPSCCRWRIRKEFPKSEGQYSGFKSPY
Assay: Yo-Pro-1 uptake assay (Yo-Pro-1 Assay) in HEK-293 cells transiently transfected with P2X7R
Assay type: cell-based
Conditions: HEK293; compound at 5 μM; 30 μM bzATP stimulus; reading 1 hour after stimulation; transfected HEK-293 cells; read-out: Percentage of activity remains in the presence of the compound at 5 μM, P2X7R (Yo-Pro-1 Assay)
Please go through the items and note down their remaining activity at 5 µM.
Numbers only, in %.

Past entries and their recorded results:
O=S(=O)(c1ccccc1)C1CN(S(=O)(=O)c2ccc(N3CCCCC3)cc2)C1 [#10] :: 70.1
COc1ccc(S(=O)(=O)N2CCCC(NC(=O)CCc3ccccc3)C2)cc1 (centres unmarked) [#2] :: 15.8
O=C1CCC(N2Cc3c(NC(=O)CCc4ccccc4)cccc3C2=O)C(=O)N1 (centres unmarked) [#16] :: 26
O=C(CCc1ccccc1)NC1CCCN(S(=O)(=O)c2ccc(N3CCC(Oc4ccccc4)CC3)cc2)C1 (centres unmarked) [#38] :: 7.5

Now look at this entry.
According to the records, this molecule O=C(CCc1ccccc1)NC1CCCN(S(=O)(=O)c2ccc(F)c(Cl)c2)C1 (centres unmarked) [#43] displays remaining activity at 5 µM of 23.5
